pKi: −log10 of the molar value.
pKi for Prothrombin (Homo sapiens, UniProt P00734) - collated from the literature.
RESULT TYPE: pKi

Recorded results for 2 compounds are shown here.
COC(=O)n1nnnc1C(=O)[C@@H](NC(=O)[C@@H]1CC[C@H]2CN(S(=O)(=O)Cc3ccccc3)CC(=O)N21)[C@H]1CC[C@H](N)CC1 | 5.59
CN(C)c1cccc2c(S(=O)(=O)NN=C(N)N)cccc12 | 6.89

1 = N=C(N)c1ccc(Oc2cc(NC(=O)C3CCN(C(=O)CCN)CC3)cc(Oc3ccc(C(=N)N)cc3)c2)cc1
2 = CC(=N)N1CCC(Oc2ccc3cc(C(=O)O)n(Cc4ccc5ccc(C(=N)N)cc5c4)c3c2)CC1
3 = Cc1ccc(NS(=O)(=O)Cc2ccccc2)c(=O)n1CC(=O)NCC1CCc2nc(N)ncc2C1 (configuration not stated)
4 = CC(=N)N1CCC(Oc2ccc3c(c2)nc(C(C)(C)C)n3Cc2ccc3ccc(C(=N)N)cc3c2)CC1
5 = CC1(C)C2CC1[C@]1(C)OB([C@H](CCCN=C(N)N)NC(=O)c3ccc(-c4ccccc4)cc3N)O[C@@H]1C2 (some centres not stated)
Ascending by pKi, please: list the compounds accordingly. Hello, could you send the labels back in the order asked? Thank you.
3, 1, 4, 2, 5
(3: 5.16, 1: 5.57, 4: 6.02, 2: 6.28, 5: 8.89)

1 = Nc1ncc(CNC(=O)[C@@H]2CCCN2C(=O)[C@H](N)C(c2ccccc2)c2ccccc2)s1
2 = N=C(N)c1ccc(Oc2cccc(Oc3ccc(C(=N)N)cc3)c2)cc1
3 = C=Cc1cc(OC2CCOCC2)cc(C(Nc2ccc(C(=N)N)cc2)C(=O)O)c1 (configuration not stated)
4 = COC(=O)NS(=O)(=O)c1ccccc1-c1ccc(C(=O)N[C@@H](CCCN=C(N)N)B2O[C@@H]3CC4CC(C4(C)C)[C@]3(C)O2)c(C)c1 (some centres not stated)
Ascending by pKi, please: list the compounds accordingly. Hello, could you send the labels back in the order asked? Thank you.
2, 3, 1, 4
(2: 5.31, 3: 5.54, 1: 6.46, 4: 8.96)

A = CCOC(=O)c1cc(NC/C=C/c2cccc(C(=N)N)c2)ccc1OC1CCN(C(C)=N)CC1
B = CC(C)(C)OC(=O)N[C@@H](C(=O)N1CCC[C@H]1C(=O)NCc1ccc(N)nc1)C(C1CCCCC1)C1CCCCC1
C = CN(C)C(=O)c1cccc(Oc2nc3c(c(Oc4cc(C(=N)N)ccc4O)n2)NC(=O)CN3)c1
Ascending by pKi, please: list the compounds accordingly. Hello, could you send the labels back in the order asked? Thank you.
C, A, B
(C: 6.00, A: 6.32, B: 8.52)

a = Cc1cnc(NCCc2ccccn2)c(=O)n1CC(=O)NCc1cnc2[nH]ccc2c1
b = CC(C)c1cc(C(C)C)c(S(=O)(=O)N[C@@H](Cc2cccc(C(=N)N)c2)C(=O)N2CCNCC2)c(C(C)C)c1
Between these two entries, a and b , state which has the higher pKi. Kindly state the label of the option you pick.
a
(a: 8.18, b: 5.89)

P = N=C(N)c1ccc(OCC[C@H]2CCCCN2C(=O)[C@@H](CC2CCCCC2)NCC(=O)O)cc1
Q = N=C(N)NOCCNC(=O)Cc1c(Cl)ccc(NS(=O)(=O)c2ccccc2)c1F
R = CCCCS(=O)(=O)N[C@H](Cc1ccccc1)C(=O)N1CCC[C@H]1C(=O)N[C@@H](CCCNc1cc(Cl)nc(N)n1)B1O[C@@H]2CC3CC(C3(C)C)[C@]2(C)O1 (some centres not stated)
Ascending by pKi, please: list the compounds accordingly. Hello, could you send the labels back in the order asked? Thank you.
Q, P, R
(Q: 5.89, P: 6.92, R: 8.68)

1 = COc1cc(C(Nc2ccc(C(=N)N)cc2)C(=O)NCc2ccccc2)c(S(=O)(=O)c2ccccc2)cc1OCc1ccccc1 (configuration not stated)
2 = COc1cc(OCCCONC(=N)N)cc(OS(=O)(=O)c2ccccc2S(C)(=O)=O)c1
Given the listed items, does 1 or 2 have the lesser reported pKi? Kindly state the label of the option you pick.
1
(1: 5.77, 2: 7.46)
